Sourced from patent US9351973B2

MEASURED_TARGET: human CYP11B2 (Homo sapiens (Human), UniProt P19099)
Sequence (P19099 25-503): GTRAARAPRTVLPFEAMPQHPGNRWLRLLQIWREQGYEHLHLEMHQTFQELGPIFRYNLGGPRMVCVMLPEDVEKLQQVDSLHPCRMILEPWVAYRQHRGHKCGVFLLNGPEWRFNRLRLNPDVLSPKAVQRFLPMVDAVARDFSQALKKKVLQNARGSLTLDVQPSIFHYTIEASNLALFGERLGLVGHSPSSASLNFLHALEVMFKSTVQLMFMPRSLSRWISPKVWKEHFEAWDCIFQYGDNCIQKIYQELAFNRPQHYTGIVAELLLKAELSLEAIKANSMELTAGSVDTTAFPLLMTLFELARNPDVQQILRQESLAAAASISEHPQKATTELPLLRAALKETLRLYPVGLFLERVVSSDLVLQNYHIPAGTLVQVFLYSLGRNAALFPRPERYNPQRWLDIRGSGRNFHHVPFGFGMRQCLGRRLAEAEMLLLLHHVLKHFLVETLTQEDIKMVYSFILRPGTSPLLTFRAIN
EXPERIMENT_SUMMARY: V79-Human-CYP11B2 cell assay (aldosterone formation from 11-deoxycorticosterone, HTRF)
COND: V79 cells stably expressing human CYP11B2; 125 nM 11-deoxycorticosterone, 3 hours
pIC50: −log10 of the molar value.
OBSERVATION_TYPE: pIC50

INSERT INTO results (test_smiles, measured_target, observation_type, recorded_number) VALUES
  ('Cc1cncc(-c2nn3c(c2C)N(C)C(=O)CC3)c1', 'human CYP11B2 (Homo sapiens (Human), UniProt P19099)', 'pIC50', 8.01);

(1) Cc1cncc(-c2nn3c(c2C2CC2)NC(=O)CC3)c1
(2) Cc1cncc(-c2nn3c(c2C)NC(=O)CC3)c1
(3) O=C1CCn2nc(-c3cncc(F)c3)c(C3CC3)c2N1
(4) CCc1c(-c2cncc(C)c2)nn2c1N(C)C(=O)CC2
In: Please give the order of these compounds when sorted by pIC50, largest value leading. Reply with the item labels sorted in the order that was asked for.
Out: 2, 4, 1, 3

###

MEASURED_TARGET: human CYP11B1 (Homo sapiens (Human), UniProt P15538)
Sequence (P15538 25-503): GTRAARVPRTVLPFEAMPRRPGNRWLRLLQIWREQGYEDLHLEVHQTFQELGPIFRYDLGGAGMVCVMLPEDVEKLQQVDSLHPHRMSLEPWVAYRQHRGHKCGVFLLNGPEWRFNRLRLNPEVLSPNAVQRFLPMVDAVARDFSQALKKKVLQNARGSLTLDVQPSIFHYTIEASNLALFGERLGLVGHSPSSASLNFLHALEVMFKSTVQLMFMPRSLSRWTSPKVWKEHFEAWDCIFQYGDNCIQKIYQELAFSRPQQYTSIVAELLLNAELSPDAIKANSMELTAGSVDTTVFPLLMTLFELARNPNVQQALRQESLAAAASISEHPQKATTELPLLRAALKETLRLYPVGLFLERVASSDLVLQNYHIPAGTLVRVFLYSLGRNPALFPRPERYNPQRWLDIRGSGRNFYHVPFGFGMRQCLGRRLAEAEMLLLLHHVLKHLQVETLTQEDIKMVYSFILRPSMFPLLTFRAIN
EXPERIMENT_SUMMARY: V79-Human-CYP11B1 cell assay (cortisol formation from 11-deoxycortisol, HTRF)
COND: V79 cells stably expressing human CYP11B1; 250 nM 11-deoxycortisol, 3 hours
pIC50: −log10 of the molar value.
OBSERVATION_TYPE: pIC50

INSERT INTO assay_data (test_smiles, recorded_number) VALUES
  ('Cc1c(-c2cncc(F)c2)nn2c1N(C)C(=O)CC2', 5.74);

(A) CCc1c(-c2cncc(F)c2)nn2c1NC(=O)CC2
(B) Cc1c(-c2cncc(F)c2)nn2c1NC(=O)CC2
(C) Cc1cncc(-c2nn3c(c2C)NC(=O)CC3)c1
In: Rank the items in ascending order with respect to pIC50. Reply with the item labels sorted in the order that was asked for.
Out: B, A, C
(B: 5.44, A: 5.87, C: 6.55)

(a) Cc1cncc(-c2nn3c(c2C)N(C)C(=O)CC3)c1
(b) N#Cc1c(-c2cncc(Cl)c2)nn2c1NC(=O)CC2
(c) CCc1c(-c2cncc(C)c2)nn2c1N(C)C(=O)CC2
In: Please give the order of these compounds when sorted by pIC50, largest value leading. Reply with the item labels sorted in the order that was asked for.
Out: b, c, a
(b: 5.97, c: 5.63, a: 5.43)

###

MEASURED_TARGET: human CYP11B2 (Homo sapiens (Human), UniProt P19099)
EXPERIMENT_SUMMARY: V79-Human-CYP11B2 cell assay (aldosterone formation from 11-deoxycorticosterone, HTRF)
Format: cell-based
COND: V79 cells stably expressing human CYP11B2; 125 nM 11-deoxycorticosterone, 3 hours
OBSERVATION_TYPE: IC50 (nM)

(1) CCc1c(-c2cncc(F)c2)nn2c1NC(=O)CC2
(2) Cc1c(-c2cncc(F)c2)nn2c1NC(=O)CC2
(3) Cc1c(-c2cncc(F)c2)nn2c1N(C)C(=O)CC2
In: // ascending sort on recorded IC50 Reply with the item labels sorted in the order that was asked for.
Out: 1, 3, 2
